Taken from a protein production outcome set (Wang et al. 2014).

# protocolDescription: label from the status in PepcDB records
assayMetric: protein production

Example sequences with recorded protein production:
>>> result("MNNRDLLLGIFVMIIWGLNFSVIKLGVSEIDPLLLTALRFSFAVIPAVFFVKRPQVKWRYLMGYGLVFAIGVWGMGSWSIQAGLSAGMASVLLQMNVVISLLVGYFVLKETVAPIKVVGSVVAILGLALSVSVTDGSVTTLGLVFILIAALSWSITSILVKKAGTKEIFAFSIWGMLFAPLPLFALAFLRGGPEQLQTLNSLANGSVIFSVLFQAYPVTLFGYWVWNRLLVKYPLSTVAPLTFLVPIFGLLGSAIFYQEQIGLVKALACLLIIVGLIIGLIKTEKLKAYLHQPKSAKQVV")
"failed"
>>> result("VDMDVTTAKLVVGFRGYLTLTQHSLLTYRIALKLFLSMLIGWTSKIYHTLYEDGKIDDSFDVDVEIHHNFQFVLISLDTPEPIAMSNYIRQKLATIKISKEFTNEHLNLLKKEMYGDFIQSLDSIEHLTHQFSLYLSDSDKETYFDIPKIIERLTLKDVVTIGKAFFEKADASDFTVFPK")
"failed"
>>> result("MATLTRLFIHPVKSMRGIGLTHALADVSGLAFDRIFMITEPDGTFITARQFPQMVRFTPSPVHDGLHLTAPDGSSAYVRFADFATQDAPTEVWGTHFTARIAPDAINKWLSGFFSREVQLRWVGPQMTRRVKRHNTVPLSFADGYPYLLANEASLRDLQQRCPASVKMEQFRPNLVVSGASAWEEDSWKVIRIGDVVFDVVKPCSRCIFTTVSPEKGQKHPAGEPLKTLQSFRTAQDNGDVDFGQNLIARNSGVIRVGDEVEILATAPAKIYGAAAADDTANITQQPDANVDIDWQGQAFRGNNQQVLLEQLENQGIRIPYSCRAGICGSCRVQLLEGEVTPLKKSAMGDDGTILCCSCVPKTALKLTRLEHHHHHH")
"failed"
>>> result("APHGPGLIYRQPNCDDPETEEAALVAIDYINQNLPWGYKHTLNQIDEVKVWPQQPSGELFEIEIDTLETTCHVLDPTPVARCSVR")
"failed"

Documented protein production of MAAGFSSKTTRDSPHLSEIRVVLLGNNDCDRRRVVRSVLGDLTGESVGQCTVYDGEESRRRIRVVDAPGWNSNTPQSKLRESIERSAMLCAPGPHALLLVLPVRRNEDMSAGDIKSGMKLVEMLSERAWRHTIVVFACDEGTGGFSCSQKAKIVLEKCKGRGFYLQRQGGIAQLFTQIEDLVRDNGEDDVFLPQAYHELFRRKTEGLLHRRGNLRKKPVHLSKSEAGALGVEPFSVIVIAVLAAVLVSLSFGAEYGVFGGCAGLLLGSILPF : failed

----------
# protocolDescription: label from the status in PepcDB records
assayMetric: protein production

Answered examples (7):
>>> result("MKKLNSKGIRLSELMEKWRRRKKGHFAVYTNEGKRFVLPLDYLNHPMLQVLLQMAEDEFGTTIDGPLKVPCDGSLMDHIIMLVRRSMSHDYDDVEKSSTSSTCKGASISSLFRGQSQLQSLVS")
"failed"
>>> result("MEVYSMNFALGVILAFSAAFTWALTSVLSKVSMRRVSPLTLNFLRLVIASGFYLPLIIYLNLIPSKGIMWWVIVVFSGIIGFMIGDWLFLEGMKLLGVSRANMLTTLHPIITMVLAHYLLGRPLNAYLFLGAGLIILAVLLLLSEKSESGGINARGVLLVVVAELLWTIAILITDWLVSNEPPVLIAALRISSGILGGLPFLPKMWREIRKLRLGDMGLVFVISLLGTIVGQYLFIKSISLVSSTVATPVTESTPIMASLLAVVFLREKITSKLVASMMLSFIGILIIGVLG")
"failed"
>>> result("MLVLIMWLCQQRSCRRLKRGDPMAQFENNRQRLFVPAVAPLYNSTHDLVETILRVAAGLLLVTHGFGKIVNPFGAVGMVESLGFHPGVFWSPLLAATEFFGGILVAIGLFTRPASFAAMIVLLVTVYFHGIVKAEGLGGAEKSILWAAIFLFFAVRGGNRHSVDAKLTREF")
"failed"
>>> result("MSSDHRDQYYWRAKRDQFRSRAAYKLEFLIERYGIIKDGQAVLEIGSSPGGWTQVLVDHGCRVVAVDIQPMDEIPGVIFLKLNILREDAAERIREEMARSLVQRFDVVLSDAMAKTSGIRSSDHAASVMIGNAVMKIAMDTLRRGGVAVVKQFQGDMTGDFIKNWGHYFRDHRITKPPASRKESSEVYIIFYGFSGKETDNSVQG")
"failed"
>>> result("MAHHHHHHMRKIYIAGPAVFNPDMGASYYNKVRELLKKENVMPLIPTDNEATGALDIRQKNIQMIKDCDAVIADLSPFRGHEPDCGTAFEVGYAAALNKMVLTFTSDRRNMREKYGSEVDKDNLRVEGFGLPFNLMLYDGVEVFDSFESAFKYFLANFPSK")
"not failed"
>>> result("MSDALINGLAGAGGGIIAQLLTYPLQTVNTRQQTERDLKREKRKLGTIEHMCQVVKQEGWERLYGGLAPSLAGTAASQGVYYYFYQVFRNRAEATALARKKKGLGDGSVGMFASLLVAAFAGSVNVLMTNPIWVIVTRMQTHRKMTKDQTAAPESPSSNAEALVAVEPRPYGTFNTIREVYDEAGITGFWKGVIPTLIMVSNPSMQFMLYETMLTKLKKKRALKGSNNVTALETFLLGAVAKLGATVTTYPLLVVKSRLQAKQVTTGDKRQQYKGTLDAILKMIRYEGLYGFYKGMSTKIVQSVLAAAVLFMIKEELVKGAKLLLSNATSS")
"failed"
>>> result("HERVGNLNQPIEVTALYSFEGQQPGDLNFQAGDRITVISKTDSHFDWWEGKLRGQTGIFPANYVTMN")
"not failed"

Okay, now this sequence:
Lab note: SKDPAFTALLTTQLQVQREIVNKHNELRKAVSPPASNMLKMEWSREVTTNAQRWANKCTLQHSDPEDRKTSTRCGENLYMSSDPTSWSSAIQSWYDEILDFVYGVGPKSPNAVVGHYTQLVWYSTYQVGCGIAYCPNQDSLKYYYVCQYCPAGNNMNRKNTPYQQGTPCAGCPDDCDKGLCTNSCQYQDLLSNCDSLKNTAGCEHELLKEKCKATCLCENKIY gave protein production of failed
